- assay: HepG2 cytotoxicity, primary screen, cytotoxicity control for P. falciparum antimalarial project, cell-based, ATP luminescence (AID 2303);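 also: 0% = DMSO wells and 100% = digitonin-killed cells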
- experimentalConditions: HepG2 viability, 24-48 h, at 10 µM, stronger effect = higher value
Label y when inhibition is strictly below 40%; otherwise label n.

CCc1cn2c3c(cc(C(=O)N[C@@H](Cc4ccccc4)[C@H](O)CNC(C)(C)CCCC(C)C)cc13)N(C)S(=O)(=O)C2
n
COc1cccc(-c2cc(C(F)(F)F)n3ncc(C(=O)Nc4cc(C)ccc4O)c3n2)c1
y
CC(=O)Nc1cccc(Nc2nccc(Nc3ccc(Oc4ccccc4)cc3)n2)c1
y
CCc1cn2c3c(cc(C(=O)N[C@@H](Cc4ccccc4)[C@H](O)CNCc4ccccc4C)cc13)N(C)S(=O)(=O)CC2
y
CCN1CCN(c2cc(C)c3cc(NC(=O)c4cccc([N+](=O)[O-])c4)ccc3n2)CC1
n

Request: Say whether its inhibition is strictly beneath 40%. Entry: Cc1cccc(C(=O)Nc2ccnc(N(C)CCCN(C)Cc3cccc(C#N)c3)c2)c1
Result: y

Request: Item: CN1CCN(CCCNCc2cccc(Nc3nccc(Nc4ccc(Oc5ccccc5)cc4)n3)c2)CC1
Result: n

---

- assay: LFS_MB_2R medulloblastoma cell growth inhibition, synergistic combos for chromothripsis tumors, cisplatin combos (AID 1671457);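 also: cells exposed to compound for four days before readout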
- experimentalConditions: LFS_MB_2R medulloblastoma cells, measured here: combination with cisplatin, at 0.5 µM, stronger effect = higher value
measuredMetric: inhibition (%)
All answers are understood in %, so give the number only.

In the examples that follow, each entry is paired with its recorded inhibition.
O=c1[nH]c(-c2ccc(C(F)(F)F)cc2)nc2c1CSCC2
-7.07
O=c1ncccn1[C@@H]1O[C@H](CO)[C@@H](O)[C@H]1O
-23.5
CO[C@H]1/C=C/O[C@@]2(C)Oc3c(C)c(O)c4c(O)c(c(C=NN5CCN(C)CC5)c(O)c4c3C2=O)NC(=O)/C(C)=C\C=C\[C@H](C)[C@H](O)[C@@H](C)[C@@H](O)[C@@H](C)[C@H](OC(C)=O)[C@@H]1C
-10.3

Request: For O=c1cc(-c2cccc3c2Sc2ccccc2S3)oc(N2CCOCC2)c1 , what is its reported inhibition?
Result: -27.3

Request: Field entry: CC(C)N=c1cc2n(-c3ccc(Cl)cc3)c3ccccc3nc-2cc1Nc1ccc(Cl)cc1
Result: 1.44

Request: Do the same for O=C(Nc1ccccc1)c1ccccc1O please
Result: 7.79

---

- assay: sensitizers of A549 cells to miR-34 induction, primary screen, imaging, A549 dox-inducible miR-34, nuclei and caspase counts (AID 1347080)
- experimentalConditions: A549 miR-34 inducible, Hoechst nuclei count, 48 h; stronger effect = lower value; cell number ratio, induced over uninduced
measuredMetric: fold change
Form field (numeric): enter value without unit.

COC(=O)C[C@](O)(CCCC(C)(C)O)C(=O)O[C@@H]1C(OC)=C[C@]23CCCN2CCc2cc4c(cc2[C@H]13)OCO4
1.08

As a next step, examine the molecule that follows.
Request: I have this molecule here, CSCC[C@H](NC(=O)[C@H](Cc1c[nH]c2ccccc12)NC(=O)[C@H](C)NC(=O)OC(C)(C)C)C(=O)N[C@@H](CC(=O)O)C(=O)N[C@@H](Cc1ccccc1)C(N)=O , and I need its recorded fold change.
Result: 0.979
